- Test system: MDA-MB-231 cells
- assay_name: MTT cell viability assay, MDA-MB-231
- Format: cell-based
- reported_conditions: Homo sapiens, MDA-MB-231, 48 h, read-out: Cell growth % at 10 µM, MDA-MB-231
// boundary case: viability at 10 µM equal to 50% maps to 0 (no); strictly smaller maps to 1 (yes)

> print(dat)
                                   molecule  category
1  C=CC[Se]C(=O)c1ccc2c(c1)OCO2 [Compound 4a, Se-allyl benzodioxole-5-carboselenoate]    0 (no)
2  C=CC[Se]C(=O)c1ccco1 [Compound 11a, Se-allyl 4-furan-2-carboselenoate]   1 (yes)
3  C=CC[Se]C(=O)c1ccno1 [Compound 12a, Se-allyl isoxazole-5-carboselenoate]    0 (no)
4     C#CC[Se]C(=O)c1sccc1Cl [Compound 10b]    0 (no)
5  C=CC[Se]C(=O)c1ccccc1O [Compound 13a, Se-allyl 2-hydroxybenzoselenoate]    0 (no)

Query string: # TODO verify viability at 10 µM < 50% strictly for this molecule: C=CC[Se]C(=O)c1sccc1Cl [Compound 10a]
Result string: 1 (yes)

Query string: # TODO verify viability at 10 µM < 50% strictly for this molecule: C=CC[Se]C(=O)C(C)c1ccc(CC(C)C)cc1 (centres unmarked) [Compound 15a]
Result string: 1 (yes)

----------
- Test system: MDA-MB-231 cells
- assay_name: MTT cell viability assay, MDA-MB-231
- Format: cell-based
- reported_conditions: Homo sapiens, MDA-MB-231, 48 h, read-out: Cell growth % at 10 µM, MDA-MB-231
viability at 10 µM values for the compounds below.
I only need the number, in %, no unit after it.

Below, 2 compounds whose answers are already recorded.
> print(dat)
                                   compound  number
1  C=CC[Se]C(=O)/C=C/c1ccccc1 [Compound 5a, Se-allyl 3-phenylprop-2E-eneselenoate]    91.1
2       C#CC[Se]C(=O)c1ccno1 [Compound 12b]    92.5

Read the next record carefully.
Query string: Fill: viability at 10 µM (MDA-MB-231 cells) for this compound C#CC[Se]C(=O)c1cccnc1 [Compound 7b, Se-prop-2-ynyl pyridine-3-carboselenoate]
Result string: 91.3

----------
- system_tested: AChE (Rattus norvegicus, UniProt P37136)
- Construct: from tissue; host or cells: frontal cortex of male Wistar rats (crude homogenate)
- Sequence (P37136 32-614): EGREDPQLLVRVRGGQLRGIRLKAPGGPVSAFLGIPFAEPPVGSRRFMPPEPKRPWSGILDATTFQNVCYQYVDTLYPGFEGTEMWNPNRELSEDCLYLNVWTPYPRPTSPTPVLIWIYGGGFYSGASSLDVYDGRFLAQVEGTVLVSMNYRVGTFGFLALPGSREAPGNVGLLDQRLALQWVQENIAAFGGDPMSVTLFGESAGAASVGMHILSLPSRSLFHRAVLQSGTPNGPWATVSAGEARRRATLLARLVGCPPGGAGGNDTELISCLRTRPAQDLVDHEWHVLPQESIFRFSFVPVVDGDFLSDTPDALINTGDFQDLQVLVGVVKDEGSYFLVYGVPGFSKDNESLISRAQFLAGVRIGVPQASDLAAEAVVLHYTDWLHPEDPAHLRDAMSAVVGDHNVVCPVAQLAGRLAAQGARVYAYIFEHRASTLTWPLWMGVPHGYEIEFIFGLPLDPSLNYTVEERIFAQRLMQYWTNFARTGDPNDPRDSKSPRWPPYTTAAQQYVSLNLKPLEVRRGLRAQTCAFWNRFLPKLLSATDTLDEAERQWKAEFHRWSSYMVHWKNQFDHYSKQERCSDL
- assay_name: AChE inhibition by Ellman's method (rat frontal cortex homogenate)
- Type: biochemical
- reported_conditions: at 10^−6 M, Ellman's method
inhibition at 1 µM values for the compounds below.
I only need the number, in %, no unit after it.

Below, 2 compounds whose answers are already recorded.
> print(dat)
                                   compound  number
1  C#CC[Se]C(=O)c1ccccc1OC(C)=O [Compound 14b]    21.1
2  C#CC[Se]C(=O)c1ccccc1Nc1cccc(C(F)(F)F)c1 [Compound 19b]    21.1

Read the next record carefully.
Query string: Provide only the value of recorded inhibition at 1 µM for C=CC[Se]C(=O)c1ccccc1Cl [Compound 3a, Se-allyl 2-chlorobenzoselenoate]
Result string: 21.5
